# Test system: XIP peptide (Xip251-270) binding
# experimentNotes: XIP fragment 251-270 binding compounds – biochemical, small-molecule microarray, fluorescence 635/667 nm, 0.1 µg/mL protein, primary screen (AID 1182)
# conditionSummary: fluorescent protein binding, 635 nm, higher = more signal, called active from +8 up or from −8 down
Where composite z-score equals or exceeds 0.6, the correct label is class 1; where it does not, the label is class 0.

compound | targetOfAssay | assignedCategory
Cc1ccc(/C=C/C=O)cc1 | XIP peptide (Xip251-270) binding | class 0
COC(=O)[C@@]1(Cc2ccccc2)[C@H]2c3cc(C(=O)N(C)C)n(CCc4c[nH]c5ccc(O)cc45)c3C[C@H]2CN1C(=O)c1ccccc1 | XIP peptide (Xip251-270) binding | class 1

Task item: Dear colleague, could you confirm whether COCCCNC(=O)[C@@]1(CCS(=O)(=O)c2ccccc2)N=C(c2ccc(OCCCO)cc2)O[C@H]1c1ccccc1N=[N+]=[N-] has composite z-score at or above 0.6?
Reply: class 1

Task item: Is composite z-score at least 0.6? Consider C=CC1c2cc(O)c(OC)cc2CCN1Cc1cccc(OC(F)(F)F)c1 (stereo unspecified)
Reply: class 1

Task item: Is reported composite z-score greater than or equal to 0.6 here: COc1ccc(CCNC(=O)[C@@]2(c3ccc([N+](=O)[O-])cc3)CC(=O)N(CC34CC5CC(CC(C5)C3)C4)[C@@H]2c2ccc(CO)cc2I)cc1
Reply: class 0

Task item: Given the entry CO[C@H]1O[C@H](CO)[C@@H](OC(=O)Nc2ccccc2-c2ccccc2)[C@H](OC(=O)Nc2ccccc2-c2ccccc2)[C@@H]1OC(=O)Nc1ccccc1-c1ccccc1 , answer whether its composite z-score meets or surpasses 0.6.
Reply: class 1

Task item: Item O=c1cccc(-c2ccccc2Cl)o1 with composite z-score of 0.6 or above?
Reply: class 0

Task item: Decide: is the reported value of composite z-score for O=C(O)[C@H]1C[C@H]2C(=O)N3CCC[C@H]3C(=O)N2[C@H]1c1ccc(O)cc1 equal to or greater than 0.6?
Reply: class 0

Task item: API: above_or_equal(metric=composite z-score, cutoff=0.6) for item COC(=O)[C@@]1(Cc2ccc(OC)cc2)[C@H]2c3cc(C(=O)N4CCCC4)n(CCc4ccc(O)c(O)c4)c3C[C@H]2CN1C(=O)c1ccccc1
Reply: class 1

Task item: For this compound, is measured composite z-score 0.6 or higher? CN(C)C(=O)[C@]1(Cc2ccccc2)N=C(c2ccc(OCCCO)cc2)O[C@@H]1c1ccccc1N=[N+]=[N-]
Reply: class 1

Task item: Check if composite z-score >= 0.6 (inclusive). Item: CCOC(=O)C[C@H]1[C@H](OC(=O)c2ccc(-c3ccccc3)cc2)[C@@H](NC(=O)c2ccccc2)c2cc(OCCCO)ccc2N1C(=O)Cc1ccc(OC)cc1
Reply: class 0

Task item: Does composite z-score meet or surpass 0.6 for CC1CC/C=C\[C@H]2OC34C=CCN(Cc5ccccc5)C(=O)[C@H]3N(C(C)CO)C(=O)[C@@H]4C2C(=O)O1 (stereo partly specified) ?
Reply: class 0

Task item: Determine whether measured composite z-score meets or exceeds 0.6 for O=C(CS)NCCCCCNC(=O)[C@@H]1C[C@@H]2C(=O)NCC(=O)N2[C@@H]1c1cccc(OCCO)c1
Reply: class 1

Task item: Evaluate CCCCC(O)C1C=CC2C(=O)N(C)C(=O)C2N1N1CCCCC1 (stereo unspecified) : composite z-score at minimum 0.6?
Reply: class 0

Task item: Does composite z-score meet or surpass 0.6 for COc1cc2c(cc1O)C(c1cccs1)N(Cc1ccc([N+](=O)[O-])o1)CC2 (stereo unspecified) ?
Reply: class 0

Task item: Hi, just wondering whether CCCC[C@@H]1C[C@H]1[C@@H](NC(=O)c1cccnc1)c1ccc(Cl)cc1 shows composite z-score of 0.6 or higher.
Reply: class 0
